biological target: T1, CD16A V158 (human, UniProt P08637 17-208, limits assumed); assay: method not stated at Table 3
T1 construct: construct not described
T1 sequence (P08637 17-208 F176V limits assumed): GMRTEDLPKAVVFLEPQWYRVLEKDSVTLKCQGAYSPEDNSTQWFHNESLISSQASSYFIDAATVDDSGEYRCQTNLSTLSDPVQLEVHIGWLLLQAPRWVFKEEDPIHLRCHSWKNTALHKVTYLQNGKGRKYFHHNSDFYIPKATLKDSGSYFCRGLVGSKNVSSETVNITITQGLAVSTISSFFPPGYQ
assay_metric: binding relative to wild-type Fc (fold)
# number only, unit fold dropped from output

binder	units_symbol	binding relative to wild-type Fc
Fc variant D270E P396L G316D R416G (other, UniProt P01857-1 104-330, looked up, domain: Fc; also called D270E G316D P396L R416G) DKTHTCPPCPAPELLGGPSVFLFPPKPKDTLMISRTPEVTCVVVDVSHEEPEVKFNWYVDGVEVHNAKTKPREEQYNSTYRVVSVLTVLHQDWLNDKEYKCKVSNKALPAPIEKTISKAKGQPREPQVYTLPPSRDELTKNQVSLTCLVKGFYPSDIAVEWESNGQPENNYKTTPLVLDSDGSFFLYSKLTVDKSGWQQGNVFSCSVMHEALHNHYTQKSLSLSPGK	fold	1.22

Then this binder:
*Q* Answer with reported binding relative to wild-type Fc of Fc variant F243L D270E P396L Q419H (other, UniProt P01857-1 104-330, looked up, domain: Fc) DKTHTCPPCPAPELLGGPSVFLLPPKPKDTLMISRTPEVTCVVVDVSHEEPEVKFNWYVDGVEVHNAKTKPREEQYNSTYRVVSVLTVLHQDWLNGKEYKCKVSNKALPAPIEKTISKAKGQPREPQVYTLPPSRDELTKNQVSLTCLVKGFYPSDIAVEWESNGQPENNYKTTPLVLDSDGSFFLYSKLTVDKSRWQHGNVFSCSVMHEALHNHYTQKSLSLSPGK
*A* 1.46
